Reference for the values: paper PMC10004088

system: RAW 264.7 macrophages; assay: Cell viability / cytotoxicity by the Alamar Blue assay; format: cell-based; details: Mus musculus, RAW264.7, 24 h, LPS + IFN-γ activated RAW 264.7 macrophages, N = 6, mean ± SD
Each entry below carries its recorded CC50.

As a guide, the following entries are already answered.
[
  {
    "COMPOUND": "COc1ccc([C@@H]2Oc3c(O)cc(CCCO)cc3[C@H]2CO)cc1OC",
    "TEST_SYSTEM": "RAW 264.7 macrophages",
    "CC50": "> 100 µg/mL"
  },
  {
    "COMPOUND": "COc1cc([C@@H]2Oc3c(OC)cc(CCCO)cc3[C@H]2CO)ccc1O",
    "TEST_SYSTEM": "RAW 264.7 macrophages",
    "CC50": "> 100 µg/mL"
  },
  {
    "COMPOUND": "COc1cc(/C=C/C(=O)CC(=O)/C=C/c2ccc(O)c(OC)c2)ccc1O [curcumin, reference compound]",
    "TEST_SYSTEM": "RAW 264.7 macrophages",
    "CC50": "10.9 µg/mL"
  },
  {
    "COMPOUND": "COc1cc2c(c(O)c1OC)CO[C@H]1Cc3c(cc(O)c(C)c3OC)O[C@H]21",
    "TEST_SYSTEM": "RAW 264.7 macrophages",
    "CC50": "37.2 µg/mL"
  },
  {
    "COMPOUND": "COc1cc2c(c(OC)c1C)C[C@@H]1OCc3c(cc(OC)c(OC)c3O)[C@H]1O2",
    "TEST_SYSTEM": "RAW 264.7 macrophages",
    "CC50": "19.8 µg/mL"
  },
  {
    "COMPOUND": "COc1cc2c(c(O)c1C)[C@@H](O)[C@@H]1OCc3c(cc(OC)c(OC)c3O)[C@H]1O2",
    "TEST_SYSTEM": "RAW 264.7 macrophages",
    "CC50": "> 100 µg/mL"
  }
]

Consider now this further compound.
What value of measured CC50 is listed for COc1cc2c(c(OC)c1C)C[C@@H]1OCc3c(cc4c(c3O)OCO4)[C@H]1O2 ?
15.5 µg/mL
